Recorded values, source patent US12209085B2.

# measured_on: Ret V804M (Homo sapiens (Human), UniProt P07949, V804M)
# Sequence (P07949 29-1114 V804M): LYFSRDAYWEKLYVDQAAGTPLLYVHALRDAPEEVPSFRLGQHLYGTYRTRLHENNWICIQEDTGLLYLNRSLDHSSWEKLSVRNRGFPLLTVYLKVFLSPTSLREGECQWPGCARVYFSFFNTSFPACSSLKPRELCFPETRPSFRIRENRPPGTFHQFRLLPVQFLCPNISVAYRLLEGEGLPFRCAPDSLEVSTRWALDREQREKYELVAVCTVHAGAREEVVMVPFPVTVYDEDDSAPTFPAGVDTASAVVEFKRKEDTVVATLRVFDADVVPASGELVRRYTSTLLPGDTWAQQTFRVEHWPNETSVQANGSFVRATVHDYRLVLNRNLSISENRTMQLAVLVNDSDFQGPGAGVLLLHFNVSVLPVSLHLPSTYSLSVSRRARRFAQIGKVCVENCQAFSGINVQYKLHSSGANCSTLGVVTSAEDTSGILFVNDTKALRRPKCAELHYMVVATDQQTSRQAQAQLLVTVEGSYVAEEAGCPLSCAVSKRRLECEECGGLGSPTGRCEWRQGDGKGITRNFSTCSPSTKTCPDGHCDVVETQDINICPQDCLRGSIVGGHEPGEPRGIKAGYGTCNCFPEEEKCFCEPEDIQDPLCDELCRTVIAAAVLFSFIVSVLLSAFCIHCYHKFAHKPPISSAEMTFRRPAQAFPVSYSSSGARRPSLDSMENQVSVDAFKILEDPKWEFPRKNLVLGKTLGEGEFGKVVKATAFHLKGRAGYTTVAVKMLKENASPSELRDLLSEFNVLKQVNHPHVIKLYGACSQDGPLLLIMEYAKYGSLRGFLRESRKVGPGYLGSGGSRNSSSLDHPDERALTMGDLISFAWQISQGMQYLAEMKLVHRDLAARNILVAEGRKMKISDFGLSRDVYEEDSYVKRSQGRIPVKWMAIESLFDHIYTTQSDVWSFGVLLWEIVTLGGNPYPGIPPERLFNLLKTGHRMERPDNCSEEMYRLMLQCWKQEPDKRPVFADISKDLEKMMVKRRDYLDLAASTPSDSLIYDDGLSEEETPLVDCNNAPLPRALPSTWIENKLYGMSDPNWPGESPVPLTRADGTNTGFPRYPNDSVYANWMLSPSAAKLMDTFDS
# experiment: HTRF kinase inhibition assay, Ret V804M
# Type: biochemical
# measurement_setup: HTRF method
# strict inequality: IC50 < 5 nM yields criterion met, everything else yields criterion not met

Worked set:
INSERT INTO results (chemical_smiles, label_class) VALUES
  ('Cn1cc(-c2cc(-c3ccc(N4CC5CC(C4)N5CC#Cc4ccccn4)nc3)c3c(C#N)cnn3c2)cn1', 'criterion met'),
  ('C#CCNC1(C)CCN(c2ccc(-c3cc(-c4cnn(C)c4)cn4ncc(C#N)c34)cn2)CC1', 'criterion not met'),
  ('C#Cc1ccc(C(=O)N2CCN(c3ccc(-c4cc(-c5cnn(C)c5)cn5ncc(C#N)c45)cn3)CC2)cc1', 'criterion not met'),
  ('Cn1cc(-c2cc(-c3ccc(N4CCN(CC#Cc5cncc(C(F)(F)F)c5)CC4)nc3)c3c(C#N)cnn3c2)cn1', 'criterion not met');

--- query ---
Threshold test, IC50 < 5 nM: `C#Cc1cc(F)c(CN2C3CC2CN(c2ccc(-c4cc(-c5cnn(C)c5)cn5ncc(C#N)c45)cn2)C3)c(F)c1`
criterion met

* * *

For each of the compounds below, state its IC50.
# measured_on: Ret V804L (Homo sapiens (Human), UniProt P07949, V804L)
# Sequence (P07949 29-1114 V804L): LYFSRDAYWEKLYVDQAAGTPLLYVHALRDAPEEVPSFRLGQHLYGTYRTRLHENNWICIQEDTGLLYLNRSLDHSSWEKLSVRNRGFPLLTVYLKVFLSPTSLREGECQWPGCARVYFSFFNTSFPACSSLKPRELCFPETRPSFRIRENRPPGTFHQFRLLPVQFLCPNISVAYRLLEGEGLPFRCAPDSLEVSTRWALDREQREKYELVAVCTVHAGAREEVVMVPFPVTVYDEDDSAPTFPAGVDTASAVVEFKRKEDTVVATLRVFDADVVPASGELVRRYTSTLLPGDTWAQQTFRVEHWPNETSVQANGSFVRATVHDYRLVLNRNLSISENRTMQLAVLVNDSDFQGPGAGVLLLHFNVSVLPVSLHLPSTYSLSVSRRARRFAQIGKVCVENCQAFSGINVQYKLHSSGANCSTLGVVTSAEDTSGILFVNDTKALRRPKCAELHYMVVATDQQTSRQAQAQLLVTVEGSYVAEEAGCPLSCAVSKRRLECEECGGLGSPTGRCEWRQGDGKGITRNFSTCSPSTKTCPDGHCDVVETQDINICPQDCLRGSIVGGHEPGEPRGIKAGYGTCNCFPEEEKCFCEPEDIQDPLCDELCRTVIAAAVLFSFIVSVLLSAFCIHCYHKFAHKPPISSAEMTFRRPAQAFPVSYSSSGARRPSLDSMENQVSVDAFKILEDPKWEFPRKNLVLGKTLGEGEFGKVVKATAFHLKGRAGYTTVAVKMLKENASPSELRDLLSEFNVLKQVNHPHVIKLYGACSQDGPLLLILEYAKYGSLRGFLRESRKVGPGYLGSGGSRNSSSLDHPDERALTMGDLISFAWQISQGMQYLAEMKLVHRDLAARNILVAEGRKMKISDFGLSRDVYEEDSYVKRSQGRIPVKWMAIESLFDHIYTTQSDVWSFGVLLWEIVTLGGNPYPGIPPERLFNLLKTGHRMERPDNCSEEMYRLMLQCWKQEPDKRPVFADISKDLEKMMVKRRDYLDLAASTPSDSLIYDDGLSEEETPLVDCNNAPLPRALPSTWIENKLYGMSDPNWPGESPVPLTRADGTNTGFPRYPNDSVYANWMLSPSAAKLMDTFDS
# experiment: HTRF kinase inhibition assay, Ret V804L
# Assay type: biochemical
# measurement_setup: HTRF method
# Excerpt: • 1. […] 1) • 18) Echo (Labcyte, 550) • 3. […]
Answers are plain numbers, in nM.

INSERT INTO results (chemical_smiles, recorded_measurement) VALUES
  ('C#Cc1ccc(C(=O)N2CCN(c3ccc(-c4cc(-c5cnn(C)c5)cn5ncc(C#N)c45)cn3)CC2)cc1', 0.3);

Below are 4 compounds. Give each one its IC50.
1. C#Cc1cccc(C(=O)NC2(C)CCN(c3ccc(-c4cc(-c5cnn(C)c5)cn5ncc(C#N)c45)cn3)CC2)c1
2. Cn1cc(-c2cc(-c3ccc(N4CCN(C(=O)C#Cc5ccccc5)CC4)nc3)c3c(C#N)cnn3c2)cn1
3. COc1cncc(C#CCN2C3CC2CN(c2ccc(-c4cc(-c5cnn(C)c5)cn5ncc(C#N)c45)cn2)C3)c1
4. COc1ccc(C#CCN2C3CC2CN(c2ccc(-c4cc(-c5cnn(C)c5)cn5ncc(C#N)c45)cn2)C3)cn1

1: 0.2; 2: 0.95; 3: 0.06; 4: 0.23

* * *

# measured_on: Ret wt (Homo sapiens (Human), UniProt P07949)
# Sequence (P07949 29-1114): as the sequence (P07949 29-1114 V804L) above, with L776V counted along it
# experiment: HTRF kinase inhibition assay, Ret wt
# Format: biochemical
# measurement_setup: HTRF method
For each of the molecules below, state its IC50.
Give bare numbers, in nM.

Example molecules with recorded IC50:
INSERT INTO measurements (molecule, recorded_measurement) VALUES
  ('C#Cc1cc(CN2C3CC2CN(c2ccc(-c4cc(-c5cnn(C)c5)cn5ncc(C#N)c45)cn2)C3)ccc1F [Example 220]', 0.22),
  ('C#Cc1ccc(O[C@@H]2CCN(c3ccc(-c4cc(-c5cnn(C(F)F)c5)cn5ncc(C#N)c45)cn3)C2)cc1 [Example 286]', 0.85),
  ('C#Cc1cc(F)c(C(=O)N2C3CC2CN(c2ccc(-c4cc(-c5cnn(C)c5)cn5ncc(C#N)c45)cn2)C3)c(F)c1 [Example 235]', 0.4),
  ('Cn1cc(-c2cc(-c3ccc(N4CC5CC(C4)N5CC#Cc4ccc(C(F)(F)F)cc4)nc3)c3c(C#N)cnn3c2)cn1 [Example 242]', 1.72),
  ('Cn1cc(-c2cc(-c3ccc(N4CC5CC(C4)N5C(=O)C#Cc4ccccc4)nc3)c3c(C#N)cnn3c2)cn1 [Example 271]', 5.82),
  ('C#Cc1ccc(C(=O)N2CCN(c3ccc(-c4cc(-c5cnn(C)c5)cn5ncc(C#N)c45)cn3)CC2)cc1 [Example 3]', 0.27);

Then this molecule:
GET /values?readout=IC50&system=Ret wt (Homo sapiens (Human), UniProt P07949)&item= C#Cc1ccc(OC2CN(c3ccc(-c4cc(-c5cnn(C6CC6)c5)cn5ncc(C#N)c45)cn3)C2)cn1 [Example 280]
0.43
